Assay: Tanguay_ZF_120hpf_CFIN_legacy: (Legacy) Oregon State University Tanguay Lab 120 Hour Post-fertilization zebrafish Assay for Caudal Fin Malformation (AID 2283649)
Results filed as inconclusive are left out. The source made the active and inactive calls. How the source made its calls: active means hit-call score of the fitted dose curve at least 0.9, where 1 is the maximum; inconclusive means response in the unintended direction; inactive means score below 0.9.
Valid outcomes are listed here; reply with one: active, inactive

compound	answer_label
CCOP(=S)(OCC)SCCSCC	inactive
C=C(C)[C@H]1Cc2c(ccc3c2O[C@@H]2COc4cc(OC)c(OC)cc4[C@@H]2C3=O)O1	inactive
CC(C)[C@H](C(=O)O[C@H](C#N)c1cccc(Oc2ccccc2)c1)c1ccc(Cl)cc1	inactive
Nc1nc(N)nc(NC2CC2)n1	inactive
CNC(=O)ON=C(SC)C(=O)N(C)C	inactive
CCCCN(CC)c1c([N+](=O)[O-])cc(C(F)(F)F)cc1[N+](=O)[O-]	inactive

Recorded test outcome, item CCOP(=O)(SC(C)CC)N1CCSC1=O (stereo not drawn) inactive

Recorded test outcome, item CCOP(=S)(OCC)Oc1cc(C)nc(C(C)C)n1 inactive

Recorded test outcome, item COc1cc(OC)nc(Sc2cccc(Cl)c2C(=O)O)n1 inactive

Recorded test outcome, item CCC(=NOC/C=C/Cl)C1=C(O)CC(C2CCOCC2)CC1=O (stereo not drawn) inactive

Recorded test outcome, item FC(F)C(F)(F)OCC(Cn1cncn1)c1ccc(Cl)cc1Cl (stereo not drawn) active

Recorded test outcome, item CC(C1CC1)C(O)(Cn1cncn1)c1ccc(Cl)cc1 (stereo not drawn) inactive

Recorded test outcome, item O=[N+]([O-])c1cc(C(F)(F)F)c(Cl)c([N+](=O)[O-])c1Nc1ncc(C(F)(F)F)cc1Cl inactive

----------
Read-out: sulfotransferase (SULT2A), SULT2A1 (gene 6822)
Assay: CLD_SULT2A_6hr: CellzDirect (CLD) Gene Expression Assay for sulfotransferase (SULT2A) at 6 hours (AID 2283669);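 further: hits raise transcript level above the DMSO vehicle baseline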
Protocol: CLD_6hr is a cell-based, multiplexed-readout assay that uses hepatocyte, a human liver primary cell, with measurements taken at 6 hours after chemical dosing in a 96-well plate.CLD_SULT2A_6hr is one of 16 assay component(s) measured or calculated from the CLD_6hr assay. […] Furthermore, this assay endpoint can be referred to as a primary readout. […]
Records with an inconclusive call do not appear. Calls of active or inactive are those of the source. The calls were made as follows: active = hit-call score of the fitted dose curve at least 0.9, where 1 is the maximum; inconclusive = response in the unintended direction; inactive = score below 0.9.
readout_label: AC50

Examples with their reported AC50 follow.
molecule	result
C#CC(C)(C)NC(=O)c1cc(Cl)cc(Cl)c1	inactive
CNC(=O)ON=C(SC)C(=O)N(C)C	inactive
CCCCSP(=O)(SCCCC)SCCCC	inactive
C#CCC1=C(C)C(OC(=O)C2C(C=C(C)C)C2(C)C)CC1=O (stereo not drawn)	inactive
CCc1cccc(CC)c1N(COC)C(=O)CCl	inactive
CNc1cnn(-c2cccc(C(F)(F)F)c2)c(=O)c1Cl	inactive
CN(C)NC(=O)CCC(=O)O	inactive

Request the reported AC50 associated with CCOP(=S)(Oc1cnc(C(C)(C)C)nc1)OC(C)C (stereo not drawn) 10.8 µM (active)

----------
Assay: BSK_hDFCGF_SRB: Viability Assessment in the BioMAP Diversity Plus: hDFCGF Assay (AID 2283061);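 further: cells exposed to compound for 24 h before the read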
Conditions: primary human foreskin fibroblasts
Active and inactive are the calls of the source. How the source made its calls: active means hit-call score of the fitted dose curve at least 0.9, where 1 is the maximum; inactive means score below 0.9.
readout_label: AC50

Examples with their reported AC50 follow.
molecule	AC50
CC(Oc1cccc(Cl)c1)C(=O)O (stereo unspecified)	inactive
CCCCOC(=O)[C@@H](C)Oc1ccc(Oc2ccc(C#N)cc2F)cc1	inactive
CC(C1CC1)C(O)(Cn1cncn1)c1ccc(Cl)cc1 (stereo unspecified)	inactive
Cc1cc(C2CC2)nc(Nc2ccccc2)n1	inactive
COP(=O)(OC)SCn1c(=O)oc2cc(Cl)cnc21	13.8 µM (active)

Okay, now this molecule:
Request the reported AC50 associated with C=C(C)[C@H]1Cc2c(ccc3c2O[C@@H]2COc4cc(OC)c(OC)cc4[C@@H]2C3=O)O1 inactive

----------
Read-out: Fatty acid synthase (Homo sapiens)
Experiment: LTEA_HepaRG_FASN: Life Technologies and Expression Analysis (LTEA) Assay for Fatty Acid Synthase (FASN) using HepaRG (AID 2283448)
Details: mRNA level, 48 h; actives raise or lower the signal
Activity calls are given as the source filed them. How the source made its calls: active means hit-call score of the fitted dose curve at least 0.9, where 1 is the maximum; inactive means score below 0.9.
Valid outcomes are listed here; reply with one: 1.0 for active, 0.0 for inactive

Example results:
compound	answer_label
CCCSP(=O)(OCC)Oc1ccc(Br)cc1Cl (configuration not stated)	0.0
CSC1=N[C@@](C)(c2ccccc2)C(=O)N1Nc1ccccc1	1.0
CC(=NC#N)N(C)Cc1ccc(Cl)nc1	0.0
CON=C(C(=O)OC)c1ccccc1CON=C(C)c1cccc(C(F)(F)F)c1	0.0
CCc1cnc(C2=NC(C)(C(C)C)C(=O)N2)c(C(=O)O)c1 (configuration not stated)	0.0

Recorded test outcome, item COc1ccc(C(=CC(=O)N2CCOCC2)c2ccc(Cl)cc2)cc1OC 0.0

Recorded test outcome, item CNC(=O)Oc1cccc2c1OC(C)(C)O2 0.0

Recorded test outcome, item CN1COCN(Cc2cnc(Cl)s2)C1=N[N+](=O)[O-] 0.0

Recorded test outcome, item COc1cccc(C(=O)NN(C(=O)c2cc(C)cc(C)c2)C(C)(C)C)c1C 0.0

Recorded test outcome, item FC(F)C(F)(F)OCC(Cn1cncn1)c1ccc(Cl)cc1Cl (configuration not stated) 1.0

Recorded test outcome, item CCOP(=S)(OCC)Oc1ccc2c(C)c(Cl)c(=O)oc2c1 0.0

----------
Assay: ATG_M_32_CIS: Attagene CIS-FACTORIAL HepG2 Assay for M32 Transcription Factor (Internal Marker) (AID 2282949);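 further: background control marker of the multiplexed CIS panel rather than a real target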
Settings: HepG2 Attagene cis-factorial M32 reporter, mRNA; actives raise or lower the signal
Calls of active or inactive are those of the source. Rule for the calls: active = hit-call score of the fitted dose curve at least 0.9, where 1 is the maximum; inactive = score below 0.9.
readout_label: outcome

compound	result
CCOP(=O)(SC(C)CC)N1CCSC1=O (stereo unspecified)	inactive
CC(C)[C@H](C(=O)O[C@H](C#N)c1cccc(Oc2ccccc2)c1)c1ccc(Cl)cc1	inactive
Nc1c(Cl)cc([N+](=O)[O-])cc1Cl	inactive
CCCSP(=O)(OCC)SCCC	inactive
CCCOc1nn(C(=O)NS(=O)(=O)c2ccccc2C(=O)OC)c(=O)n1C	inactive

Okay, now this compound:
Request the reported outcome associated with Cc1cc(C2CC2)nc(Nc2ccccc2)n1 inactive

----------
Test system: Thyroperoxidase (TPO), gene 54314
Experiment: CCTE_Simmons_AUR_rTPO: CCTE's Amplex UltraRed Assay for Thyroperoxidase (TPO) Inhibition, Simmons Lab (AID 2283662);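 on AC50: potency for loss of signal meaning inhibition of peroxidase activity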
Active and inactive are the calls of the source. Rule for the calls: active = hit-call score of the fitted dose curve at least 0.9, where 1 is the maximum; inconclusive = response in the unintended direction; inactive = score below 0.9.
readout_label: AC50

Examples with their reported AC50 follow.
compound	target_desc	AC50
CC1(C(=O)Nc2ccc(O)c(Cl)c2Cl)CCCCC1	Thyroperoxidase (TPO), gene 54314	inactive
CCOP(=S)(OCC)Oc1ccc([N+](=O)[O-])cc1	Thyroperoxidase (TPO), gene 54314	15.5 µM (active)
COP(=O)(OC)SCn1c(=O)oc2cc(Cl)cnc21	Thyroperoxidase (TPO), gene 54314	7.84 µM (active)
N#CSCSC#N	Thyroperoxidase (TPO), gene 54314	2.75 µM (active)
CCOC(=O)CC(SP(=O)(OC)OC)C(=O)OCC (stereo unspecified)	Thyroperoxidase (TPO), gene 54314	29.2 µM (active)
CCOP(=S)(OCC)Oc1ccc2c(C)c(Cl)c(=O)oc2c1	Thyroperoxidase (TPO), gene 54314	38.5 µM (active)
CCOP(=S)(OCC)OC(Cl)C(Cl)(Cl)Cl (stereo unspecified)	Thyroperoxidase (TPO), gene 54314	3.97 µM (active)
CCOP(=O)(NC(C)C)Oc1ccc(SC)c(C)c1 (stereo unspecified)	Thyroperoxidase (TPO), gene 54314	inactive
CCCSP(=O)(OCC)Oc1ccc(Br)cc1Cl (stereo unspecified)	Thyroperoxidase (TPO), gene 54314	15.6 µM (active)
CCOP(=S)(OCC)Oc1cc(C)nc(C(C)C)n1	Thyroperoxidase (TPO), gene 54314	14.4 µM (active)

Okay, now this compound:
// map CCCOCC(=Nc1ccc(Cl)cc1C(F)(F)F)n1ccnc1 to recorded AC50 (system: Thyroperoxidase (TPO), gene 54314) inactive

----------
Read-out: succinate dehydrogenase complex iron sulfur subunit B (SDHB), SDHB (gene 6390)
Experiment: LTEA_HepaRG_SDHB: Life Technologies and Expression Analysis (LTEA) Assay for succinate dehydrogenase complex iron sulfur subunit B (SDHB) using HepaRG (AID 2283528)
Details: mRNA level, 48 h; actives raise or lower the signal
The source made the active and inactive calls. The calls were made as follows: active = hit-call score of the fitted dose curve at least 0.9, where 1 is the maximum; inactive = score below 0.9.
Valid outcomes are listed here; reply with one: t (active), f (inactive)

Example results:
compound	answer_label
CN(C)NC(=O)CCC(=O)O	f
CSc1nc(NC(C)C)nc(NC(C)C)n1	f
CON=C(C(=O)OC)c1ccccc1CON=C(C)c1cccc(C(F)(F)F)c1	f

Recorded test outcome, item CCOC(=O)CC(SP(=O)(OC)OC)C(=O)OCC (stereo not drawn) f

Recorded test outcome, item CCOP(=O)(NC(C)C)Oc1ccc(SC)c(C)c1 (stereo not drawn) f

Recorded test outcome, item CN(C)[C@@H]1C(=O)C(C(N)=O)=C(O)[C@@]2(O)C(=O)C3=C(O)c4c(O)cccc4[C@@](C)(O)[C@H]3[C@H](O)[C@@H]12 f
